Biological target: Insulin receptor (Homo sapiens) (UniProt P06213)
Sequence (P06213 28-758 limits assumed): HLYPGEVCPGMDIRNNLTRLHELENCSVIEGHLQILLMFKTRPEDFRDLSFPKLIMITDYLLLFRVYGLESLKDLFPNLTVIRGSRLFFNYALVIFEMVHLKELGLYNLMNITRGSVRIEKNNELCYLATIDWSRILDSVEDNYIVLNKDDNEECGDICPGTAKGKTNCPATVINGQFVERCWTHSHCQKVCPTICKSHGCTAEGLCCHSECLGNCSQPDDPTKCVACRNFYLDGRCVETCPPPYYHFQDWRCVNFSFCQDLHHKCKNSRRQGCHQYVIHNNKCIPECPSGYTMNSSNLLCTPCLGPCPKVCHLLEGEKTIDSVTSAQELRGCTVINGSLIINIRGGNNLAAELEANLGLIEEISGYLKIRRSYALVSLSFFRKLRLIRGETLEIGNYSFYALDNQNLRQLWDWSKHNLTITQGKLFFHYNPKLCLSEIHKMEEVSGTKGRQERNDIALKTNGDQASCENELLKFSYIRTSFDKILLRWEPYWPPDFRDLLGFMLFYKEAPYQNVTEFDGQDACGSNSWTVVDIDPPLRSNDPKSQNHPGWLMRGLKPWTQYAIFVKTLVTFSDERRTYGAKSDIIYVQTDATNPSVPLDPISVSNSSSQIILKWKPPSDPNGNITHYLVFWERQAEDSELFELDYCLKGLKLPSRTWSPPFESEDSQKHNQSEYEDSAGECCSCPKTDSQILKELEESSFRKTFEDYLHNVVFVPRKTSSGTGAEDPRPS
Sequence (P06213 763-1382 limits assumed): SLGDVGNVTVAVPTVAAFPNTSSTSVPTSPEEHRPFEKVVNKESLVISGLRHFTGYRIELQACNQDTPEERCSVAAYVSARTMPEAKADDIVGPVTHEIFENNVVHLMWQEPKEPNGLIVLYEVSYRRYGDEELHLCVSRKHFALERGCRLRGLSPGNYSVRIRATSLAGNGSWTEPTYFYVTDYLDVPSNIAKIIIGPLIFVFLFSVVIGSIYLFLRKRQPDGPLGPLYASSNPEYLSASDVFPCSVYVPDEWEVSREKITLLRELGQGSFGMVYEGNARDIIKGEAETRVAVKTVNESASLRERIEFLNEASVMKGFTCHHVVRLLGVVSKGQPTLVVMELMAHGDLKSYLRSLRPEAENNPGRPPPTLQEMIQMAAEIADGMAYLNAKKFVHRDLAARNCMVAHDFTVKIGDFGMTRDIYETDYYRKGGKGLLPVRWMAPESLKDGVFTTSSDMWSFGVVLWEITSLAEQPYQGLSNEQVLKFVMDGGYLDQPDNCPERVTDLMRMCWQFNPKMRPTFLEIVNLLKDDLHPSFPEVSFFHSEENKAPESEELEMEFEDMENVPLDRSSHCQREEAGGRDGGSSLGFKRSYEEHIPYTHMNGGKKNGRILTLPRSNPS
Experiment: Inhibition of INSR at 10 uM by mobility shift assay
testReadout: inhibition (%)

- OCc1ccc(-c2cn3c(-c4cn[nH]c4)cnc3cn2)cc1: 16
- c1ccc(-c2cnc3cnc(-c4cc[nH]n4)cn23)cc1: 5
- OCc1cccc(-c2cn3c(-c4cn[nH]c4)cnc3cn2)c1: 8

P. c1ccc(-c2cnc3cnc(-c4ccncc4)cn23)cc1
Q. O=S(=O)(NCCNC/C=C/c1ccc(Br)cc1)c1cccc2cnccc12
Sort P and Q by inhibition descending and give the first. Let me know the label of the one you choose.
P
(P: 5%, Q: 1%)
